Reported log10 of GI50 values for a set of compounds
Test system: PC-3
Test: Growth inhibition of human PC-3 cells measured after 48 hrs by sulforhodamine B assay
Assay type: functional
measured_endpoint: log10 of GI50 (log10 of the value in nM)

>>> observed_measurement("CC(C)[C@H]1NC(=O)C[C@H]2/C=C/CCSSC[C@@H](NC1=O)C(=O)N[C@@H](Cc1ccccc1)C(=O)NCC(=O)O2")
3.04
>>> observed_measurement("CC(C)C[C@@H]1NC(=O)[C@H]2CSSCC/C=C/[C@H](CC(=O)N[C@H](C(C)C)C(=O)N2)OC(=O)CNC1=O")
3.15
>>> observed_measurement("CC(C)[C@H]1NC(=O)C[C@H]2/C=C/CCSSC[C@@H](NC1=O)C(=O)N[C@@H](C)C(=O)NCC(=O)O2")
4.11
>>> observed_measurement("CC(C)C[C@H]1NC(=O)[C@H]2CSSCC/C=C/[C@H](CC(=O)N[C@H](C(C)C)C(=O)N2)OC(=O)CNC1=O")
1.84
>>> observed_measurement("C/C=C1\\NC(=O)[C@H]2CSSCC/C=C/[C@H](CC(=O)N[C@H](C(C)C)C(=O)N2)OC(=O)CNC1=O")
2.23
>>> observed_measurement("CC(C)[C@H]1NC(=O)C[C@H]2/C=C/CCSSC[C@@H](NC1=O)C(=O)N[C@H](C)C(=O)NCC(=O)O2")
1.85
>>> observed_measurement("CC(C)[C@H]1NC(=O)C[C@H]2/C=C/CCSSC[C@@H](NC1=O)C(=O)N[C@H](Cc1ccccc1)C(=O)NCC(=O)O2")
0.76
>>> observed_measurement("CC(C)[C@H]1NC(=O)C[C@H]2/C=C/CCSSC[C@@H](NC1=O)C(=O)NCC(=O)NCC(=O)O2")
4.04
